- Test system: E. coli HH 33779
- MEASUREMENT PROTOCOL: MIC in vitro (Table 1), E. coli HH 33779
- Format: cell-based
- EXPERIMENTAL PARAMETERS: Escherichia coli, HH33779, in vitro, E. coli HH 33779; read-out: MIC
MEASURED PARAMETER: MIC (µg/mL)
State just the number; it will be interpreted in µg/mL.

Solved cases (3 shown):
molecule="O=C(O)CCCCCn1nnnc1SCC1=C(C(=O)O)N2C(=O)C(NC(=O)[C@H](O)c3ccccc3)[C@H]2SC1 (stereo partly shown) [XIII]" unit=µg/mL reading=3.1
molecule="Cn1nnnc1SCC1=C(C(=O)O)N2C(=O)C(NC(=O)C(O)c3ccccc3)[C@H]2SC1 (stereo partly shown) [cephamandole, reference compound]" unit=µg/mL reading=2.6
molecule="O=C(O)CCn1nnnc1SCC1=C(C(=O)O)N2C(=O)C(NC(=O)CSC(F)(F)F)[C@H]2SC1 (stereo partly shown) [XV]" unit=µg/mL reading=3.1

Recorded MIC (molecule NC(=O)CCn1nnnc1SCC1=C(C(=O)O)N2C(=O)C(NC(=O)[C@H](O)c3ccccc3)[C@H]2SC1 (stereo partly shown) [VII] ): 1.6

// recorded MIC for NC(=O)Cn1nnnc1SCC1=C(C(=O)O)N2C(=O)C(NC(=O)[C@H](O)c3ccccc3)[C@H]2SC1 (stereo partly shown) [V] : 1.6

MIC measured on NC(=O)Cn1nnnc1SCC1=C(C(=O)O)N2C(=O)C(NC(=O)[C@H](N)c3ccc(O)cc3)[C@H]2SC1 (stereo partly shown) [VI] = 6.3

The measured MIC associated with CN(C)C(=O)Cn1nnnc1SCC1=C(C(=O)O)N2C(=O)C(NC(=O)[C@H](O)c3ccccc3)C2SC1 (stereo partly shown) [IV] reads 6.3
